- system: T1, pSAKLDEESILKQ-Biotin
- T1 peptide: [pS]AKLDEESILKQ-{Biotin′}
- experiment.description: Octet (BLI), fixed reagent concentration;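 also: octet binding of candidate PTM-specific affinity reagents, each at one fixed concentration, to biotinylated phospho-Thr or phospho-Ser peptides, with unmodified biotinylated peptides serving as controls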
Primed or numbered codes have the meaning given here. Where no end group is shown, it is not given here. [ ]: non-standard residue; d: D form. pS = N[C@@H](COP(=O)(O)O)C(=O)O; Biotin′ = not defined here
Octet binding assay response: recorded values
Reply with just the number.

Guide cases for Octet binding assay response, answers given:
>>> numeric_readout("PM20 (Human/RB15B) (other) MQLGWNGLLVLKNSCFPTSMHILEGDQGVISSLLKDHTSGSKLTQLKIAQRLRLDQPKLDEVTRRIKQGSPNGYAVLLATQATPSGLGTEGMPTVEPGLQRRLLRNLVSYLKQKQAAGVISLPVGGSKGRDGTGMLYAFPPCDFSQQYLQSALRTLGKLEEEHMVIVIVRDTA")
0.2
>>> numeric_readout("PM04 (Human/14-3-3 protein gamma) (other) MVDREQLVQKARLAEQAERYDDMAAAMKNVTELNEPLSNEERNLLSVAYKNVVGARRSSWRVISSIEQKTSADGNEKKIEMVRAYREKIEKELEAVCQDVLSLLDNYLIKNCSETQYESKVFYLKMKGDYYRYLAEVATGEKRATVVESSEKAYSEAHEISKEHMQPTHPIRLGLALNYSVFYYEIQNAPEQACHLAKTAFDDAIAELDTLNEDSYKDSTLIMQLLRDNLTLWTSDQQDDDGGEGNN")
0.1
>>> numeric_readout("PM05 (Human/14-3-3 protein beta/alpha) (other) MTMDKSELVQKAKLAEQAERYDDMAAAMKAVTEQGHELSNEERNLLSVAYKNVVGARRSSWRVISSIEQKTERNEKKQQMGKEYREKIEAELQDICNDVLELLDKYLIPNATQPESKVFYLKMKGDYFRYLSEVASGDNKQTTVSNSQQAYQEAFEISKKEMQPTHPIRLGLALNFSVFYYEILNSPEKACSLAKTAFDEAIAELDTLNEESYKDSTLIMQLLRDNLTLWTSENQGDEGDAGEGEN")
0.2
>>> numeric_readout("PM03 (Human/14-3-3 protein eta) (other) MGDREQLLQRARLAEQAERYDDMASAMKAVTELNEPLSNEDRNLLSVAYKNVVGARRSSWRVISSIEQKTMADGNEKKLEKVKAYREKIEKELETVCNDVLSLLDKFLIKNCNDFQYESKVFYLKMKGDYYRYLAEVASGEKKNSVVEASEAAYKEAFEISKEQMQPTHPIRLGLALNFSVFYYEIQNAPEQACLLAKQAFDDAIAELDTLNEDSYKDSTLIMQLLRDNLTLWTSDQQDEEAGEGN")
0.2

Please look at the following binder next.
Q) Specify reported Octet binding assay response for the binder shown: PM19 (Human/RBM15) (other) MAPVASASPKLCLAWQGMLLLKNSNFPSNMHLLQGDLQVASSLLVEGSTGGKVAQLKITQRLRLDQPKLDEVTRRIKVAGPNGYAILLAVPGSSDSRSSSSSAASDTATSTQRPLRNLVSYLKQKQAAGVISLPVGGNKDKENTGVLHAFPPCEFSQQFLDSPAKALAKSEEDYLVMIIVRGFGFQI
A) 0.1
